tested.system: T1, human c-Met ECD-Fc-Flis (human)
T1 construct: c-Met ECD fused to Fc with flag- and His-tag at the C-terminus; also called human c-Met extracellular domain (ECD)-Fc-Flis fusion; human c-Met-Flis-Fc ECD
T1 sequence (chain, as listed by the source): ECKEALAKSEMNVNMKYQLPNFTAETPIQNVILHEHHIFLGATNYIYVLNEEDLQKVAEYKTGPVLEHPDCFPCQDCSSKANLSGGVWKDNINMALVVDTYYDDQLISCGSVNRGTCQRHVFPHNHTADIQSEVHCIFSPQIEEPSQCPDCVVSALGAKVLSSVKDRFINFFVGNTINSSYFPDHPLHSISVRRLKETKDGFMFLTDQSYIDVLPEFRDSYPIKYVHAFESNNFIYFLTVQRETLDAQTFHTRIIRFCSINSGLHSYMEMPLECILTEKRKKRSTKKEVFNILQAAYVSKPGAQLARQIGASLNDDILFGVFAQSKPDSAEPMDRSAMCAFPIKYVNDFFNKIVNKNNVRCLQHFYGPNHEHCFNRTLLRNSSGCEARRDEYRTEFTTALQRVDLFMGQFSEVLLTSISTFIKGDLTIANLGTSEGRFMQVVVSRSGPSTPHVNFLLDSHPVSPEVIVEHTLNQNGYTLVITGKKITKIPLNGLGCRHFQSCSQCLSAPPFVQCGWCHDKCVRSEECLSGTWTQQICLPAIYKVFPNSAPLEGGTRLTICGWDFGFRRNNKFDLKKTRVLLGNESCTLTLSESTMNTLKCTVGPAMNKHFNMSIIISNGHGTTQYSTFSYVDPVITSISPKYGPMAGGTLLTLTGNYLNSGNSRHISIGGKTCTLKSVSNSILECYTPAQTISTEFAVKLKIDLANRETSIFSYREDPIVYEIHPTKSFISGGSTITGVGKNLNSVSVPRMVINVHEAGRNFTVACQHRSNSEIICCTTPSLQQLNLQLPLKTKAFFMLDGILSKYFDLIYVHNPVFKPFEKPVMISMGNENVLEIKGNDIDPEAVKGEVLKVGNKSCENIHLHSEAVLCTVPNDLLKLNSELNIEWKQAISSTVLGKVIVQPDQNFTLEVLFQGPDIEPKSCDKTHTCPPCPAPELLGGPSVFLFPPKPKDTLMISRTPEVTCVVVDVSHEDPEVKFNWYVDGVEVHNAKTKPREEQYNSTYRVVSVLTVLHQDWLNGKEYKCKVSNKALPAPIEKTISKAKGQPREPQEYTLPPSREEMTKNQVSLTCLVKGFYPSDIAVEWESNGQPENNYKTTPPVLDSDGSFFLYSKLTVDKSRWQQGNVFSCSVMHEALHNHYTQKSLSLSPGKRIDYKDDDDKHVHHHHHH
protocol.notes: HGF-blocking ELISA: HGF signal on coated c-Met ECD-Fc-Flis; Ab 488.28 ng/mL
List of AVG A450 nm values.

{"binder": "C8-6 (antibody, human IgG2, kappa, V domains shown, Named IgG4 kappa; also called C8-6 IgG4) VH: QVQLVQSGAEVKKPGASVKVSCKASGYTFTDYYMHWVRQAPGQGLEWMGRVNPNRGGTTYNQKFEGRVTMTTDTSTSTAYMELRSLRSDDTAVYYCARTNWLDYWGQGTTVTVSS VL: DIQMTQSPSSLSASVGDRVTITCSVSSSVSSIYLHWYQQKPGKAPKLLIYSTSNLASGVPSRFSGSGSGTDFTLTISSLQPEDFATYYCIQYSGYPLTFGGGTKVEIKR", "AVG A450 nm [A450 nm]": 1.33}
{"binder": "D11-8B8 (antibody, human IgG2, kappa, V domains shown, Human engineered IgG2 kappa c-Met antibody; also called Mab D11-8B8; D11-8B8 IgG2) VH: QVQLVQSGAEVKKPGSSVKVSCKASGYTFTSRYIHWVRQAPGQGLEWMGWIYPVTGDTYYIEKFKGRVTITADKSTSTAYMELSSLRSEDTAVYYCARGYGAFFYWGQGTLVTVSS VL: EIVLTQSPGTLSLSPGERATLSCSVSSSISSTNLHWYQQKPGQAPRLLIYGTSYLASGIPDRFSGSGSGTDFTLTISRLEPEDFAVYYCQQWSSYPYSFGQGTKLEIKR", "AVG A450 nm [A450 nm]": 1.3}
